- TARGET_UNDER_TEST: Bcl-2 (Homo sapiens (Human))
- PROTOCOL_TEXT: Bcl-2 competition binding (fluorescence polarization) assay
- CONDITION_DETAILS: fluorescein labeled BH3 peptide 15 nM, Bcl-2 protein 30 nM, 3 hours of incubation at room temperature
Where a name gives a salt, the structure may show the parent alone.
ENDPOINT_LABEL: pIC50
Scale for pIC50: -log10 of concentration given in mol/L; no unit attached.

CC(C)Oc1ccccc1[C@@H]1CCCN1C1CC2(CCN(c3ccc(C(=O)NS(=O)(=O)c4ccc(NCC5CCC(C)(O)CC5)c([N+](=O)[O-])c4)c(N4c5cc6cc[nH]c6nc5O[C@@H]5COC[C@H]54)c3)CC2)C1 (stereo partly shown) [Example 44] = 9.75

Q) Need pIC50, item "CC(C)c1ccccc1[C@@H]1CCCN1C1CC2(CCN(c3ccc(C(=O)NS(=O)(=O)c4ccc(NC[C@H]5CC[C@](C)(O)CC5)c([N+](=O)[O-])c4)c(N4c5cc6cc[nH]c6nc5O[C@@H]5COC[C@H]54)c3)CC2)C1"
A) 9.80

Q) Need pIC50, item CO[C@]1(C)CC[C@H](CNc2ccc(S(=O)(=O)NC(=O)c3ccc(N4CCC5(CC4)CC(N4CCC[C@H]4c4ccccc4C(C)C)C5)cc3N3c4cc5cc[nH]c5nc4O[C@@H]4COC[C@H]43)cc2[N+](=O)[O-])CC1 [Example 37, hydrochloride]
A) 9.45

Q) Need pIC50, item "CNc1ccccc1[C@@H]1CCCN1C1CC2(CCN(c3ccc(C(=O)NS(=O)(=O)c4ccc(NCC5CCOCC5)c([N+](=O)[O-])c4)c(N4c5cc6cc[nH]c6nc5O[C@@H]5COC[C@H]54)c3)CC2)C1"
A) 9.65

Q) Need pIC50, item "Cc1ccccc1[C@@H]1CCCN1C1CC2(CCN(c3ccc(C(=O)NS(=O)(=O)c4ccc(NCC5CCOCC5)c([N+](=O)[O-])c4)c(N4C[C@H]5CCOC[C@@H]5Oc5nc6[nH]ccc6cc54)c3)CC2)C1"
A) 9.52

Q) Need pIC50, item "CC1(C)C[C@H](c2ccccc2[C@@H]2CCCN2C2CC3(CCN(c4ccc(C(=O)NS(=O)(=O)c5ccc(NCC6CCOCC6)c([N+](=O)[O-])c5)c(N5c6cc7cc[nH]c7nc6O[C@@H]6COC[C@H]65)c4)CC3)C2)CCO1"
A) 7.80

Q) Need pIC50, item "CC(C)Cc1ccccc1[C@@H]1CCCN1C1CC2(CCN(c3ccc(C(=O)NS(=O)(=O)c4ccc(NCC5CCOCC5)c([N+](=O)[O-])c4)c(N4c5cc6cc[nH]c6nc5O[C@@H]5COC[C@H]54)c3)CC2)C1"
A) 9.24

###

- TARGET_UNDER_TEST: Bcl-2 (Homo sapiens (Human), UniProt P10415)
- Sequence (P10415 whole entry): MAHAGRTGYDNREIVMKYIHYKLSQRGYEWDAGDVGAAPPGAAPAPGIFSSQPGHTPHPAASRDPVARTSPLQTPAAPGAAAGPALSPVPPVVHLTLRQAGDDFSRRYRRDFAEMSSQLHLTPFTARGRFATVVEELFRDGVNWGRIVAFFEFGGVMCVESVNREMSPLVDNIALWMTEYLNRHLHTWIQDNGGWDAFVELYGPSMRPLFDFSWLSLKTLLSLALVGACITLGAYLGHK
- PROTOCOL_TEXT: Bcl-2 competition binding (fluorescence polarization) assay
- CONDITION_DETAILS: fluorescein labeled BH3 peptide 15 nM, Bcl-2 protein 30 nM, 3 hours of incubation at room temperature
ENDPOINT_LABEL: IC50 (pM)
Express your answer in pM, writing the number without its unit.

Cc1ccccc1C1CC(C)(C)CN1C1CC2(CCN(c3ccc(C(=O)NS(=O)(=O)c4ccc(NCC5CCOCC5)c([N+](=O)[O-])c4)c(N4c5cc6cc[nH]c6nc5O[C@@H]5COC[C@H]54)c3)CC2)C1 (stereo partly drawn) = 707
O=C(NS(=O)(=O)c1ccc(NCC2CCOCC2)c([N+](=O)[O-])c1)c1ccc(N2CCC3(CC2)CC(N2CCC[C@H]2c2ccccc2NCC(F)(F)F)C3)cc1N1c2cc3cc[nH]c3nc2O[C@@H]2COC[C@H]21 = 1200

Moving on to the next molecule.
Q) Param readout= IC50; system= Bcl-2 (Homo sapiens (Human), UniProt P10415); entry= "CC(C)c1ccccc1[C@@H]1CCCN1C1CC2(CCN(c3ccc(C(=O)NS(=O)(=O)c4ccc(NC[C@H]5CC[C@@](C)(O)CC5)c([N+](=O)[O-])c4)c(N4c5cc6cc[nH]c6nc5O[C@@H]5COC[C@H]54)c3)CC2)C1" ; returns value.
A) 130

###

This listing pairs compounds with measured IC50.
- TARGET_UNDER_TEST: Bcl-2 (Homo sapiens (Human))
- PROTOCOL_TEXT: Bcl-2 competition binding (fluorescence polarization) assay
- CONDITION_DETAILS: fluorescein labeled BH3 peptide 15 nM, Bcl-2 protein 30 nM, 3 hours of incubation at room temperature
Counter-ions that a name gives are not always drawn.
Express your answer in nM, writing the number without its unit.

O=C(NS(=O)(=O)c1ccc(NCC2CCOCC2)c([N+](=O)[O-])c1)c1ccc(N2CCC3(CC2)CC(N2CCC[C@H]2c2ccccc2-c2cccnc2)C3)cc1N1c2cc3cc[nH]c3nc2O[C@@H]2COC[C@H]21 [Example 13, hydrochloride] = 2.42

Q) Need IC50, item "Cc1ccccc1[C@@H]1COCCN1C1CC2(CCN(c3ccc(C(=O)NS(=O)(=O)c4ccc(NCC5CCOCC5)c([N+](=O)[O-])c4)c(N4c5cc6cc[nH]c6nc5O[C@@H]5COC[C@H]54)c3)CC2)C1"
A) 0.265

###

- TARGET_UNDER_TEST: Bcl-2 (Homo sapiens (Human))
- PROTOCOL_TEXT: Bcl-2 competition binding (fluorescence polarization) assay
- CONDITION_DETAILS: fluorescein labeled BH3 peptide 15 nM, Bcl-2 protein 30 nM, 3 hours of incubation at room temperature
Counter-ions that a name gives are not always drawn.
ENDPOINT_LABEL: IC50 (nM)
Express your answer in nM, writing the number without its unit.

Reference set, count: 6
O=C(NS(=O)(=O)c1ccc(NCC2CCOCC2)c([N+](=O)[O-])c1)c1ccc(N2CCC3(CC2)CC(N2CCC[C@H]2c2ccccc2C2CCC2)C3)cc1N1c2cc3cc[nH]c3nc2O[C@@H]2COC[C@H]21 [Example 22] = 0.1
CC(C)Oc1ccccc1[C@@H]1CCCN1C1CC2(CCN(c3ccc(C(=O)NS(=O)(=O)c4ccc(NCC5CCOCC5)c([N+](=O)[O-])c4)c(N4c5cc6cc[nH]c6nc5O[C@H]5CCOC[C@@H]54)c3)CC2)C1 [Example 58] = 0.324
CC(C)c1cc(F)ccc1[C@@H]1CCCN1C1CC2(CCN(c3ccc(C(=O)NS(=O)(=O)c4ccc(NCC5CCOCC5)c([N+](=O)[O-])c4)c(N4c5cc6cc[nH]c6nc5O[C@@H]5COC[C@H]54)c3)CC2)C1 [Example 60] = 0.341
CC(C)Oc1ccccc1[C@@H]1CCCN1C1CC2(CCN(c3ccc(C(=O)NS(=O)(=O)c4ccc(NCC5CCOCC5)c([N+](=O)[O-])c4)c(N4c5cc6cc[nH]c6nc5O[C@@H]5COC[C@H]54)c3)CC2)C1 [Example 20] = 0.299
O=C(NS(=O)(=O)c1ccc(NCC2CCOCC2)c([N+](=O)[O-])c1)c1ccc(N2CCC3(CC2)CC(N2CCC[C@H]2c2ccccc2C2CC2)C3)cc1N1c2cc3cc[nH]c3nc2O[C@@H]2COC[C@H]21 [Example 8, hydrochloride] = 0.066
Cc1ccccc1[C@@H]1CCCN1C1CC2(CCN(c3ccc(C(=O)NS(=O)(=O)c4ccc(NC[C@H]5COCCO5)c([N+](=O)[O-])c4)c(N4c5cc6cc[nH]c6nc5O[C@@H]5COC[C@H]54)c3)CC2)C1 [Example 39] = 0.19

Q) Need IC50, item CC(C)Oc1ccccc1[C@@H]1CCCN1C1CC2(CCN(c3ccc(C(=O)NS(=O)(=O)c4ccc(NC[C@H]5COCCO5)c([N+](=O)[O-])c4)c(N4c5cc6cc[nH]c6nc5O[C@@H]5COC[C@H]54)c3)CC2)C1 [Example 43]
A) 0.28

Q) Need IC50, item O=C(NS(=O)(=O)c1ccc(NCC2CCOCC2)c([N+](=O)[O-])c1)c1ccc(N2CCC3(CC2)CC(N2CCC[C@H]2c2ccccc2-c2ccncc2)C3)cc1N1c2cc3cc[nH]c3nc2O[C@@H]2COC[C@H]21 [Example 14, hydrochloride]
A) 0.74

Q) Need IC50, item O=C(NS(=O)(=O)c1ccc(NCC2CCOCC2)c([N+](=O)[O-])c1)c1ccc(N2CCC3(CC2)CC(N2CCC[C@H]2c2ccccc2C(F)(F)F)C3)cc1N1c2cc3cc[nH]c3nc2O[C@@H]2COC[C@H]21 [Example 15, hydrochloride]
A) 0.2

###

- TARGET_UNDER_TEST: Bcl-2 (Homo sapiens (Human))
- PROTOCOL_TEXT: Bcl-2 competition binding (fluorescence polarization) assay
- CONDITION_DETAILS: fluorescein labeled BH3 peptide 15 nM, Bcl-2 protein 30 nM, 3 hours of incubation at room temperature
Counter-ions that a name gives are not always drawn.
This listing pairs molecules with measured IC50.
Express your answer in pM, writing the number without its unit.

Q) Need IC50, item CC(C)Nc1ccccc1[C@@H]1CCCN1C1CC2(CCN(c3ccc(C(=O)NS(=O)(=O)c4ccc(NCC5CCOCC5)c([N+](=O)[O-])c4)c(N4c5cc6cc[nH]c6nc5O[C@@H]5COC[C@H]54)c3)CC2)C1 [Example 21, hydrochloride]
A) 239

Q) Need IC50, item Cc1ccccc1[C@@H]1CCCN1C1CC2(CCN(c3ccc(C(=O)NS(=O)(=O)c4ccc(NCC5CCC(C)(O)CC5)c([N+](=O)[O-])c4)c(N4c5cc6cc[nH]c6nc5O[C@@H]5COC[C@H]54)c3)CC2)C1 (stereo partly shown) [Example 41]
A) 180

Q) Need IC50, item "CC#Cc1ccccc1[C@@H]1CCCN1C1CC2(CCN(c3ccc(C(=O)NS(=O)(=O)c4ccc(NCC5CCOCC5)c([N+](=O)[O-])c4)c(N4c5cc6cc[nH]c6nc5O[C@@H]5COC[C@H]54)c3)CC2)C1"
A) 307

Q) Need IC50, item "NC(=O)c1ccccc1[C@@H]1CCCN1C1CC2(CCN(c3ccc(C(=O)NS(=O)(=O)c4ccc(NCC5CCOCC5)c([N+](=O)[O-])c4)c(N4c5cc6cc[nH]c6nc5O[C@@H]5COC[C@H]54)c3)CC2)C1"
A) 15800
